All values here come from ChEMBL document CHEMBL1201862.

System: UO-31
experiment.notes: NCI tumour cell line growth inhibition, 48 h
Activity calls are given as the source filed them. No stated cut-off is given here; in the data, active = GI50 up to about 1.1 µM and inactive = higher.
Exercise: state measured GI50 for each of the compounds provided.

Incoming: Report GI50 on UO-31 for this entry: C#Cc1cccc(NC(=O)/C=C\C(=O)O)c1
Outgoing: > 100 µM (inactive)

Incoming: Report GI50 on UO-31 for this entry: CCCCC(=O)c1c(O)nc2sccn2c1=O
Outgoing: > 10 µM (inactive)

Incoming: Report GI50 on UO-31 for this entry: COc1cccc(/C=C(\NC(C)=O)c2nc3cc(Cl)ccc3[nH]2)c1
Outgoing: > 100 µM (inactive)

Incoming: Report GI50 on UO-31 for this entry: OCCNC1c2cc(Cl)ccc2-c2c(Cl)cc(Cl)cc21 (stereo unspecified)
Outgoing: 3.37 µM (inactive)

Incoming: Report GI50 on UO-31 for this entry: COC1CCC(O)C(CO)O1 (stereo unspecified)
Outgoing: > 100 µM (inactive)

Incoming: Report GI50 on UO-31 for this entry: CC1=CC(=O)/C(=C(/C)NCCN(CCN/C(C)=C2\C(=O)C=C(C)OC2=O)CCN/C(C)=C2\C(=O)C=C(C)OC2=O)C(=O)O1
Outgoing: > 100 µM (inactive)
